Reference source for all entries: ChEMBL document CHEMBL1201862

Listed molecules paired with reported GI50
- System: HOP-62
- Assay name: NCI tumour cell line growth inhibition, 48 h
Calls of active or inactive are those of the source. No stated cut-off is given here; in the data, active = GI50 up to about 1.1 µM and inactive = higher.

CC1(C)C=C(/C=N/Nc2ccccc2)C(C#N)=C(O)C1(C#N)C#N = > 100 µM (inactive)
CSc1ccc2c(cc1=O)C(NC(=O)c1cc(O)c(OC(=O)O)c(O)c1)CCc1cc(O)c(O)c(O)c1-2 (centres undefined) = 19 µM (inactive)
COc1cc(-c2c3c(cc4c2OCO4)[C@@H](Nc2ccc4c(c2)Cc2cc(N[C@@H]5c6cc7c(cc6C(c6cc(OC)c(O)c(OC)c6)[C@H]6C(=O)OC[C@H]56)OCO7)ccc2-4)[C@H]2COC(=O)[C@@H]2C3)cc(OC)c1O (some centres undefined) = 18.5 µM (inactive)

Here is another molecule to look at.
[ask] Fill blank: measured GI50 of the molecule O=C(O)C(Cc1ccccc1)N1C(=O)N/C(=C\c2ccc(F)cc2)C1=O (centres undefined) is ____.
[reply] > 100 µM (inactive)

###

- System: PC-3
- Assay name: NCI tumour cell line growth inhibition, 48 h
Activity calls are given as the source filed them. Rule as the data show it: active = GI50 up to about 1.1 µM and inactive = higher.
Would you mind answering with one of these outcomes? label 1 for active, label 0 for inactive

Please review the entries below; each comes with its answer.
C1CCN2CC34CC(CC5CCCN(C6CCCC3N6)C54)C2C1 (configuration not stated) = label 0
COc1ccc(C2c3cc4c(cc3OC3(OC)COC(=O)C23)OCO4)c(OC)c1 (configuration not stated) = label 0
O=C(O)c1nn[nH]c1Cl = label 0

[ask] # lookup: test call for `CC#Cc1ccc(-c2ccccc2)s1`
[reply] label 0

###

- Tested on: CAKI-1
- Assay name: NCI tumour cell line growth inhibition, 48 h
The source made the active and inactive calls. Cut-off read from the data, not from the text of the source: active = GI50 up to about 1.1 µM and inactive = higher.
Hi there, use one of these labels in your reply, thanks! true = active, false = inactive

Take a look at these entries with their results.
N#CC(c1nc2ccccc2s1)c1ncnc(Cl)c1[N+](=O)[O-] (centres undefined) = false
Cc1nn(C(=O)CC(=O)Nc2ccccc2Cl)c(C)c1/N=N/c1ccccc1Cl = false
O=C(O)C(Cc1ccccc1)N1C(=O)N/C(=C\c2ccc(F)cc2)C1=O (centres undefined) = false

[ask] What call does the record list for Cc1ccc(NC(=O)CC2Sc3ccccc3NC2=O)cc1C (centres undefined) ?
[reply] false

[ask] Another compound to check: `COc1cc(-c2ccccc2)cn2c1nc1ccccc12`
[reply] false

[ask] Here is the next compound: CC(C)NC(=O)OCCN=C1c2ccccc2C(Br)C(Br)c2ccccc21 (centres undefined)
[reply] false

[ask] Try this compound next: `Oc1ccc(-c2nc(-c3cccnc3)c(-c3ccc(Cl)cc3)[nH]2)cc1`
[reply] false

[ask] Now try O=C(Nc1ccc(Cl)cc1Cl)C1C(=O)N(c2ccc(Cl)cc2Cl)C(=O)/C1=N\Nc1ccc([N+](=O)[O-])cc1[N+](=O)[O-] (centres undefined) .
[reply] false

[ask] Also check `COc1ccc(Nc2nc(N)c(C(=O)c3ccco3)s2)cc1`
[reply] false

[ask] Can you check `O=C1C(Cl)=C(N2CCN(CCOCCO)CC2)C(=O)c2ccccc21` next?
[reply] false

[ask] Similarly, N=C(N)c1ccc(C(NC(=O)CNS(=O)(=O)c2ccc3ccccc3c2)P(=O)(Oc2ccccc2)Oc2ccccc2)cc1 (centres undefined) ?
[reply] false

[ask] Now consider `CCCCCCCCCc1c(Cl)nc(Cl)nc1Cl` .
[reply] false
